From: PubChem BioAssay (NCI)

Tested on: A498 renal
test description: NCI tumour cell line growth inhibition, 48 h
value type: TGI

The following compounds have reported results that may help.
{"compound": "O=S(=O)(c1ccc(NC(=S)NC23CC4CC(CC(C4)C2)C3)cc1)N1CCCCC1", "reading": "7.79 µM"}
{"compound": "Nc1nc([O-])c2c(n1)[n+](C1OC(CO)C(O)C1O)cn2CCO (stereo unspecified)", "reading": "> 100 µM"}
{"compound": "O=C1NC2O[C@H](CNC(=O)c3cc(Br)c[nH]3)CC2(O)N1 (mixture of isomers)", "reading": "> 100 µM"}

QUERY: Would you kindly share the measured TGI for COc1ccc(S(=O)(=O)c2ccccc2[N+](=O)[O-])cc1 ?
RESULT: > 100 µM

QUERY: Please give the result for CCCN(CCC)C(=O)c1c([N+](=O)[O-])cc(C(F)(F)F)cc1[N+](=O)[O-] too.
RESULT: > 100 µM

QUERY: How about NNC(=O)c1c(SCc2ccccc2)nc2c3ccccc3ccn12 ?
RESULT: 46.6 µM
